# Test protocol: recombinant barcode read abundance after kanamycin selection (control-corrected) (log10(CPM+1)); higher = more efficient recombination; sequences stand for … in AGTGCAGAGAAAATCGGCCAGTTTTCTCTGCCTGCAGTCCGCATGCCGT…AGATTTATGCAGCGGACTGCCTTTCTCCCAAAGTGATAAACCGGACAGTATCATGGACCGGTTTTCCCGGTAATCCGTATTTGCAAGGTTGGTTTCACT; site = the 11-nt target;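 further: IS621 recombinase and bridge RNA in Escherichia coli cells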
Each entry gets label 0 if its recombinant barcode read abundance (log10) stays under 0.4, and label 1 if its recombinant barcode read abundance (log10) is 0.4 or above.

# count of solved cases: 3
[
  {
    "Polymer sequence": "CCGCGTCCTTGGGTTCTAACCTGTTGCTA (site CCGCGTCCTTA)",
    "Category label": "label 0"
  },
  {
    "Polymer sequence": "ATGCACCCTTGGGTTCTAACCTGTTGCCT (site ATGCACCCTAG)",
    "Category label": "label 1"
  },
  {
    "Polymer sequence": "CTAATATCTTGGGTTCTAACCTGTTGCCA (site CTCATATCTTG)",
    "Category label": "label 0"
  }
]

hey, is recombinant barcode read abundance (log10) for this one >= 0.4? GTTTAGTCTTGGGTTCTAACCTGTTGCCT (site GTTTAATCTAG)
label 0

hey, is recombinant barcode read abundance (log10) for this one >= 0.4? GTCGGAGCTTGGGTTCTAACCTGTTGCCG (site GTCGGAGCTCG)
label 0
